- study target: HDAC1 (Homo sapiens)
- Sequence (Q13547 whole entry): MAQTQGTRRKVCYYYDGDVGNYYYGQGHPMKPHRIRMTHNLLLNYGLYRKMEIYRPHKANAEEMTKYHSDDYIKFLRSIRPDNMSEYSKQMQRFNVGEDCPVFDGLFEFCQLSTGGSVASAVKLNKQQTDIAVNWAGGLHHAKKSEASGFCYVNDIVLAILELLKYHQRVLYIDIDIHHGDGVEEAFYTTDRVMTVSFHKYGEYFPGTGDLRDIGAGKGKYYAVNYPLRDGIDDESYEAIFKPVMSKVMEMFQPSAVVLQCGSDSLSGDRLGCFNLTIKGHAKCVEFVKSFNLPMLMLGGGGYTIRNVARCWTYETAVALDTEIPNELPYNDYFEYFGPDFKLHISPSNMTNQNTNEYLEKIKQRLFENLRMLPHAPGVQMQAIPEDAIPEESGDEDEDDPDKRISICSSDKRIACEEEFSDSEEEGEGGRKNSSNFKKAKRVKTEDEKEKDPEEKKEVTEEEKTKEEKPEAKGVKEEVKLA
readout label: IC50 (µM)
Numeric answer only, unit µM assumed.

Supply measured IC50 of O=C(CCC(=O)c1ccc(-n2ncc(-c3ccc(O)cc3)n2)cc1)NO [VI(e)] in your reply.
27.2

###

The following molecules have recorded IC50 on HDAC6 (Homo sapiens).
Sequence (Q9UBN7 whole entry): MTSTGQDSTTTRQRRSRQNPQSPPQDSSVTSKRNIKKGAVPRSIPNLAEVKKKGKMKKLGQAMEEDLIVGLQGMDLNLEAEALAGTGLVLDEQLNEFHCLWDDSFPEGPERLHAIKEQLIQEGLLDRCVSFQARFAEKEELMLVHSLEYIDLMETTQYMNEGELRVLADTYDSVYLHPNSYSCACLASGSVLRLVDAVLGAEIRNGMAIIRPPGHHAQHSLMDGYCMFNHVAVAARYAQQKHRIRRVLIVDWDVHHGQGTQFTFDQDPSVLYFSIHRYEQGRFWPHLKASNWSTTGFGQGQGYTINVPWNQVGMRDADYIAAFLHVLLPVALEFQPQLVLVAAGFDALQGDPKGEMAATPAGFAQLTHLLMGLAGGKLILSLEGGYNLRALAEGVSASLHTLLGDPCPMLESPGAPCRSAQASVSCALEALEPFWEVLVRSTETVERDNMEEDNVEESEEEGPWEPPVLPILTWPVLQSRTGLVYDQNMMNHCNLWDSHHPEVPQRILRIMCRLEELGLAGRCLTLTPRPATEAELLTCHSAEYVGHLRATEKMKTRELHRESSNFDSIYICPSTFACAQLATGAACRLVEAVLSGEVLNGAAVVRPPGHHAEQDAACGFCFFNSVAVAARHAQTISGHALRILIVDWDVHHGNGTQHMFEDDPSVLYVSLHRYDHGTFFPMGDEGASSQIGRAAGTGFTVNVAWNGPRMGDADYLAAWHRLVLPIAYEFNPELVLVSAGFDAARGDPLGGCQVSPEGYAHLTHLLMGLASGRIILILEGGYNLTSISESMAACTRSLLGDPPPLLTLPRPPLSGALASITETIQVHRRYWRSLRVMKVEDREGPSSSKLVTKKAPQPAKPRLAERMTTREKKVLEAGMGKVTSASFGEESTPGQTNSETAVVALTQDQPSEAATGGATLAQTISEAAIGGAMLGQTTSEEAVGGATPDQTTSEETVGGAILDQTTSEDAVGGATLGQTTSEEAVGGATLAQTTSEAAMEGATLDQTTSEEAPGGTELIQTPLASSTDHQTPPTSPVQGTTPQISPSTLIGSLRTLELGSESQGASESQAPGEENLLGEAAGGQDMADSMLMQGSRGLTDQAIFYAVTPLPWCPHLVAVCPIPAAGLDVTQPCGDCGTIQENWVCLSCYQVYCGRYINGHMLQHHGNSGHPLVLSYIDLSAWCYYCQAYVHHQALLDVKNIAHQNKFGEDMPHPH
Numeric answer only, unit µM assumed.

• O=C(CCC(=O)c1ccc(-n2ncc(-c3ccc([N+](=O)[O-])cc3)n2)cc1)NO = 24.2
• O=C(CCC(=O)c1ccc(-n2ncc(-c3ccc(O)cc3)n2)cc1)NO [VI(e)] = 18.6
• COc1ccc(-c2cnn(CCCCCC(=O)NO)n2)cc1 = 13.4

Give HDAC6 (Homo sapiens) IC50 for the following molecule: O=C(CCC(=O)c1ccc(-n2ncc(-c3ccc(Cl)cc3)n2)cc1)NO
31.7

###

- Test system: A-549 (Human Lung Cancer Cell Line)
- measurement notes: SRB antiproliferative assay, A-549
- Assay type: cell-based
- assay context: Homo sapiens, A549, A-549, 48 h, read-out: GI50
Let's look at some molecules and their measured GI50.
Numeric answer only, unit µg/mL assumed.

Here is how some molecules turned out for GI50.
* COc1ccc(-c2cnn(-c3ccc(C(=O)CCC(=O)NO)cc3)n2)cc1 | 19.4
* COc1ccc(-c2cnn(-c3ccc(CCC(=O)NO)cc3)n2)cc1 | 62
* O=C(CCC(=O)c1ccc(-n2ncc(-c3ccc(F)cc3)n2)cc1)NO | 26.9
* O=C(CCCCCn1ncc(-c2ccc(O)cc2)n1)NO | 50

Supply measured GI50 of Cc1ccc(-c2cnn(-c3ccc(C(=O)CCC(=O)NO)cc3)n2)cc1 in your reply.
14.7

###

Let's look at some compounds and their measured GI50.
- Tested on: A-549 (Human Lung Cancer Cell Line)
- measurement notes: SRB antiproliferative assay, A-549
- Type: cell-based
- assay context: Homo sapiens, A549, A-549, 48 h, read-out: GI50

Here is how some compounds turned out for GI50.
- COc1ccc(-c2cnn(CCCCCC(=O)NO)n2)cc1 [VI(i)]: < 10 µg/mL
- Cc1ccc(-c2cnn(CCCCCC(=O)NO)n2)cc1 [VI(k)]: > 80 µg/mL
- COc1ccc(-c2cnn(-c3ccc(C(=O)CCC(=O)NO)cc3)n2)cc1OC [VI(g)]: 53 µg/mL
- O=C(CCc1ccc(-n2ncc(-c3ccc(Cl)cc3)n2)cc1)NO [VI(l)]: > 80 µg/mL

Proceed to the following item.
Supply measured GI50 of O=C(CCC(=O)c1ccc(-n2ncc(-c3ccc(O)cc3)n2)cc1)NO [VI(e)] in your reply.
< 10 µg/mL

###

- Test system: A-549 (Human Lung Cancer Cell Line)
- measurement notes: SRB antiproliferative assay, A-549
- Type: cell-based
- assay context: Homo sapiens, A549, A-549, 48 h, read-out: GI50
readout label: GI50

* Cc1ccc(-c2cnn(-c3ccc(CCC(=O)NO)cc3)n2)cc1 | > 80 µg/mL

Supply measured GI50 of O=C(CCC(=O)c1ccc(-n2ncc(-c3ccc(Cl)cc3)n2)cc1)NO in your reply.
< 10 µg/mL

###

- Test system: A-549 (Human Lung Cancer Cell Line)
- measurement notes: SRB antiproliferative assay, A-549
- Format: cell-based
- assay context: Homo sapiens, A549, A-549, 48 h, read-out: GI50
Let's look at some molecules and their measured GI50.

Supply measured GI50 of O=C(CCc1ccc(-n2ncc(-c3ccc(O)cc3)n2)cc1)NO in your reply.
> 80 µg/mL

Supply measured GI50 of O=C(CCCCCn1ncc(-c2ccc(Cl)cc2)n1)NO in your reply.
> 80 µg/mL

Supply measured GI50 of O=C(CCC(=O)c1ccc(-n2ncc(-c3ccc([N+](=O)[O-])cc3)n2)cc1)NO in your reply.
< 10 µg/mL
